measured quantity: IC50

Lookup: Missing value: IC50, UniProt O60885, entry `CC(C)n1ncc(Nc2ccc(CN)cc2)c(Cl)c1=O` . Fill in?
Found: > 250 µM
